# target-entity: human 17β-HSD 5 (AKR1C3) (Homo sapiens)
# Construct: made in house; host or cells: E.coli BL21 DE3 Codon Plus RP
# Sequence (P42330 whole entry): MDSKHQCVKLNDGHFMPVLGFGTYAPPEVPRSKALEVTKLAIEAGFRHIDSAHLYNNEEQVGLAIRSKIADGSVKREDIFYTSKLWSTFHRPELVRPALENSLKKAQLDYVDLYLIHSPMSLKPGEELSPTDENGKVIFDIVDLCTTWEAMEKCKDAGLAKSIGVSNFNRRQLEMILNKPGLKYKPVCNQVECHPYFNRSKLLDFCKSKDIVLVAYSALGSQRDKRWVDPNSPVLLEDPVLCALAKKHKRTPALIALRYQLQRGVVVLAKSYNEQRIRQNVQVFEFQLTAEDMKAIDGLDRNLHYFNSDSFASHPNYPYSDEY
# protocol-details: In vitro enzymatic activity, recombinant human 17β-HSD 5 (androstenedione reduction)
# Type: biochemical
# condition: 2 µM compound, 21 nM 3H-androstenedione, NADPH, pH 6.6
// reported Observed % inhibition for each item listed

compound | Observed % inhibition / %
Cc1cnc(NC(=O)CC[C@@H]2CC(=O)[C@@]3(C)CC[C@@H]4c5ccc(O)cc5CC[C@H]4[C@H]23)s1 | 29.3
COc1ccc(-c2cn(CCC[C@H]3CC(=O)[C@@]4(C)CC[C@@H]5c6ccc(O)cc6CC[C@H]5[C@H]34)nn2)cc1 | 93.5
C[C@]12CC[C@@H]3c4ccc(O)cc4CC[C@H]3[C@@H]1[C@@H](CCCC(=O)N1CCOCC1)CC2=O | 33.9
C[C@]12CC[C@@H]3c4ccc(O)cc4CC[C@H]3[C@@H]1[C@@H](CNC(=O)c1ccc(F)cc1)CC2=O | 21.6
C[C@]12CC[C@@H]3c4ccc(O)cc4CC[C@H]3[C@@H]1C[C@H](CC(=O)NCc1cccnc1)C2=O [Compound 5, reference compound] | 50.6
